// data source = patent US20170253607A1

# targetOrTestSystem: HIV-1 PR (Human immunodeficiency virus type 1 group M subtype B)
# procedureText: HIV-protease inhibitory activity assay (FRET peptide substrate)
# assayContext: Test Example 1
pIC50: −log10 of the molar value.

>  <compound>
COc1ccc(S(=O)(=O)N(CC(C)C)CC(O)C(Cc2ccc(OC3CCCN(c4ccc(C#N)cc4-c4sc5c(c4C(=O)O)CC(C)(C)CC5)C3)cc2)NC(=O)OC2COC3(C)OCCC23)cc1 (centres unmarked) [Compound I-331]

>  <pIC50>
7.91

$$$$
>  <compound>
COc1ccc(S(=O)(=O)N(CC(C)C)CC(O)C(Cc2ccc(NCC3(O)CCCC3c3sc4c(c3C(=O)O)CC(C)(C)CC4)cc2)NC(=O)OC2COC3(C)OCCC23)cc1 (centres unmarked) [Compound I-334]

>  <pIC50>
8.72

$$$$
>  <compound>
COc1ccc(S(=O)(=O)N(CC(C)C)CC(O)C(Cc2ccc(NCc3ccc(C)cc3-c3sc4c(c3C(=O)O)CC(C)(C)CC4)cc2)NC(=O)OC2COC3(C)OCCC23)cc1 (centres unmarked) [Compound I-272]

>  <pIC50>
8.68

$$$$
>  <compound>
COc1ccc(S(=O)(=O)N(CC(C)C)CC(O)C(Cc2ccc(NCc3cc(Cl)ccc3C(=O)Nc3sc4c(c3C(=O)O)CC(C)(C)CC4)cc2)NC(=O)OC2COC3(C)OCCC23)cc1 (centres unmarked) [Compound I-656]

>  <pIC50>
8.18

$$$$
>  <compound>
COc1ccc(S(=O)(=O)N(CC(C)C)CC(O)C(Cc2ccc(NCc3cc(-c4sc5c(c4C(=O)O)CC(C)(C)CC5)ccc3OC(F)(F)F)cc2)NC(=O)OC2COC3(C)OCCC23)cc1 (centres unmarked) [Compound I-294]

>  <pIC50>
8.41

$$$$
